Measured log2 fold change of degron read counts, listed per entry for reference.
study_target: T1, CRBN, Q96SW2;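 further: pooled lentiviral library of zinc finger degron-EGFP fusions in mCherry-positive Jurkat cells, FACS-sorted after compound exposure, with degron abundance counted by next-generation sequencing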
T1 chain: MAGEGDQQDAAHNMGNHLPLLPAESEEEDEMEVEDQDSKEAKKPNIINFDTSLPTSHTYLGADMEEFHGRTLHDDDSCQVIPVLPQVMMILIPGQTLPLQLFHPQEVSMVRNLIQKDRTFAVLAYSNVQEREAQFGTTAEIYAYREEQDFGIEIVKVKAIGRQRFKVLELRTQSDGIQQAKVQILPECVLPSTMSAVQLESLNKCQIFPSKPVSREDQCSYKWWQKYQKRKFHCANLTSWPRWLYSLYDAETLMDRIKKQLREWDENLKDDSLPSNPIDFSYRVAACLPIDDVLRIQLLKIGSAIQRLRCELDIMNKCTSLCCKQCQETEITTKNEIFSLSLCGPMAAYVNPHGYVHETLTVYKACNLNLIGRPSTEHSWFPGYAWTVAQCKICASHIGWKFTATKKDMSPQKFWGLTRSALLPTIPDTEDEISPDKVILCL
method_summary: log2 fold change of degron read counts, EGFP-low vs EGFP+ sorted cells (limma voom), compound-induced degradation; higher = more compound-induced degradation of the degron-EGFP fusion; degrons are variants of IKZF1/3 zinc finger 2; compound dose not given here
condition_parameters: Jurkat; 18 h; compound: compound 33 (diphenyl IMiD analogue)
In all, about 8,300 sequences were measured (“log2 fold change of degron read counts, EGFP-low vs EGFP+ sorted cells (limma voom), compound-induced degradation”: median about -1.1, highest 2% from about 3.2 on). This is one part of a sample in which the highest values are shown more often than they occur.
Simply state the number, no unit and no words.

Illustrative cases are given below, each with its answer.
[
  {
    "monomer_sequence": "FSCDVCGAEFTQKGNLLRHIKL [46F_47S_49D_50V_52G_53A_54E_55F_67L_, Q9UKT9]",
    "log2 fold change of degron read counts": -1.13
  },
  {
    "monomer_sequence": "FQCNICGANFTQKGNLLRHIKL [46F_47Q_49N_50I_52G_53A_54N_55F_67L_, Q9UKT9]",
    "log2 fold change of degron read counts": 1.05
  },
  {
    "monomer_sequence": "FGCNQCGHHFTQKGNLLRHIKL [46F_47G_49N_50Q_52G_53H_54H_55F_67L_, Q9UKT9]",
    "log2 fold change of degron read counts": -1.76
  }
]

Would you mind telling me what log2 fold change of degron read counts value was observed for FVCPICGRIFTQKGNLLRHIKL [46F_47V_49P_50I_52G_53R_54I_55F_67L_, Q9UKT9] ?
1.04
